Each recorded value in this set is attributed to patent US20230295133A1.

# Tested on: BEAS2B cells
# protocol notes: Cell viability: resazurin assay
# Format: cell-based, human
# experimental setup: n = 3-5
test readout: CC50

> print(dat)
                                   molecule  test.readout  data.value
1  C[C@@H](c1ncncc1F)[C@](O)(Cn1cncn1)c1ccc(F)cc1F [Voriconazole]          CC50   > 28.6 µM

###

# key: entry, value: % Inhibition versus Infected Controls, GM in serum
# Test system: aspergillus fumigatus (ATCC 13073 [strain: NIH 5233])
# protocol notes: In vivo anti-fungal activity, prophylactic and therapeutic treatment of infected immunocompromised neutropenic mice
# Parameters: species or system A/J mice
# experimental setup: prophylactic treatment (days 0, 1, 2 and 3); 0.4 mg/mL
test readout: % Inhibition versus Infected Controls, GM in serum (%)

compound	unit	data value
N#Cc1cc(N2CCN(c3ccc(C(=O)Nc4ccc(F)cc4)cc3)CC2)ccc1OC[C@@H]1CO[C@@](Cn2cncn2)(c2ccc(F)cc2F)C1	%	90
Cc1cc(N2CCN(c3ccc(C(=O)Nc4ccc(F)cc4F)cc3)CC2)ccc1OC[C@@H]1CO[C@@](Cn2cncn2)(c2ccc(F)cc2F)C1	%	27
Cc1cc(N2CCN(c3ccc(C(=O)Nc4ccc(C#N)cc4F)cc3)CC2)ccc1OC[C@@H]1CO[C@@](Cn2cncn2)(c2ccc(F)cc2F)C1	%	79
Cc1cc(N2CCN(c3ccc(C(=O)Nc4ccc(F)cc4)cc3)CC2)ccc1OC[C@@H]1CO[C@@](Cn2cncn2)(c2ccc(F)cc2F)C1	%	95
CC[C@@H]([C@H](C)O)n1ncn(-c2ccc(N3CCN(c4ccc(OC[C@@H]5CO[C@@](Cn6cncn6)(c6ccc(F)cc6F)C5)cc4)CC3)cc2)c1=O [Posaconazole, reference compound]	%	34
O=C(Nc1ccc(F)cc1)c1ccc(N2CCN(c3ccc(OCC4CO[C@@](Cn5cncn5)(c5ccc(F)cc5F)C4)c(F)c3)CC2)cc1 (stereo in doubt)	%	72
Cc1cc(N2CCN(c3ccc(C(=O)Nc4ccc(S(N)(=O)=O)cc4)cc3)CC2)ccc1OC[C@@H]1CO[C@@](Cn2cncn2)(c2ccc(F)cc2F)C1	%	30

###

# System: Aspergillus fumigatus NCPF7099
# protocol notes: Broth microdilution assay (modified EUCAST)
# Assay type: cell-based
# experimental setup: Aspergillus fumigatus, NCPF7099, n = 3, read-out: MIC75 against Aspergillus fumigatus isolate NCPF7099
# Method: This assay was conducted using a modified method published by EUCAST (Rodriguez-Tudela et al., 2008). […] The spore count was assessed using a Neubauer haemocytometer and then adjusted to 10^6 spores/mL with PBS. […] The OD of each well at 530 nm was determined using a multi-scanner (Clariostar: BMG, Buckinghamshire, UK). The percentage inhibition for each well was calculated and the MIC50, MIC75 and MIC90 values were calculated from the concentration-response curve generated for each test compound.
Labels assigned by MIC range: label 0 = under 0.02 µM, label 1 = from 0.02 µM up to 0.03 µM, label 2 = 0.03 µM and over

compound	group label
Cc1cc(N2CCN(c3ccc(C(=O)Nc4ccc(C#N)cc4)cc3)CC2)ccc1OC[C@@H]1CO[C@@](Cn2cncn2)(c2ccc(F)cc2F)C1 [Example 9]	label 0
Cc1cc(N2CCN(c3ccc(C(=O)Nc4ccc(F)cn4)cc3)CC2)ccc1OC[C@@H]1CO[C@@](Cn2cncn2)(c2ccc(F)cc2F)C1 [Example 6]	label 1
Cc1cc(N2CCN(c3ccc(C(=O)Nc4ccc(Cl)c(F)c4)cc3)CC2)ccc1OC[C@@H]1CO[C@@](Cn2cncn2)(c2ccc(F)cc2F)C1 [Example 30]	label 2
Cc1cc(N2CCN(c3ccc(C(=O)Nc4ccc(F)cc4F)cc3)CC2)ccc1OC[C@@H]1CO[C@@](Cn2cncn2)(c2ccc(F)cc2F)C1 [Example 2]	label 1
Cc1cc(N2CCN(c3ccc(C(=O)Nc4ccc(F)cc4)cc3)CC2)c(C)cc1OC[C@@H]1CO[C@@](Cn2cncn2)(c2ccc(F)cc2F)C1 [Example 5]	label 2
Cc1cc(N2CCN(c3ccc(C(=O)Nc4ccc(C#N)cc4)cc3)CC2)cc(C)c1OC[C@@H]1CO[C@@](Cn2cncn2)(c2ccc(F)cc2F)C1 [Example 11]	label 2
Cc1cc(N2CCN(c3ccc(C(=O)Nc4ccc(S(=O)(=O)N(C)C)cc4)cc3)CC2)ccc1OC[C@@H]1CO[C@@](Cn2cncn2)(c2ccc(F)cc2F)C1 [Example 21]	label 1
O=C(Nc1ccc(F)cc1)c1ccc(N2CCN(c3ccc(OC[C@@H]4CO[C@@](Cn5cncn5)(c5ccc(F)cc5F)C4)c(CO)c3)CC2)cc1 [Example 16]	label 0
Cc1cc(N2CCN(c3ccc(C(=O)Nc4ccc(C#N)cc4F)cc3)CC2)ccc1OC[C@@H]1CO[C@@](Cn2cncn2)(c2ccc(F)cc2F)C1 [Example 23]	label 1
Cc1cc(N2CCN(c3ccc(C(=O)Nc4cccc(C#N)c4)cc3)CC2)ccc1OC[C@@H]1CO[C@@](Cn2cncn2)(c2ccc(F)cc2F)C1 [Example 8]	label 2
Cc1cc(N2CCN(c3ccc(C(=O)Nc4c(F)cc(F)cc4F)cc3)CC2)ccc1OC[C@@H]1CO[C@@](Cn2cncn2)(c2ccc(F)cc2F)C1 [Example 31]	label 0

###

# Tested on: Aspergillus fumigatus NCPF7099
# protocol notes: Broth microdilution assay (modified EUCAST)
# Format: cell-based
# experimental setup: Aspergillus fumigatus, NCPF7099, n = 3, read-out: MIC75 against Aspergillus fumigatus isolate NCPF7099
test readout: MIC (µM)

compound	data value
Cc1cc(N2CCN(c3ccc(C(=O)Nc4ccc(S(N)(=O)=O)cc4)cc3)CC2)ccc1OC[C@@H]1CO[C@@](Cn2cncn2)(c2ccc(F)cc2F)C1 [Example 19]	0.0089
O=C(Nc1ccc(F)cc1)c1ccc(N2CCN(c3ccc(OCC4CO[C@@](Cn5cncn5)(c5ccc(F)cc5F)C4)c(Cl)c3)CC2)cc1 (stereo in doubt) [Example 18]	0.011
Cc1nc(N2CCN(c3ccc(C(=O)Nc4ccc(F)cc4)cc3)CC2)ccc1OC[C@@H]1CO[C@@](Cn2cncn2)(c2ccc(F)cc2F)C1 [Example 3]	0.0276
N#Cc1ccc(NC(=O)c2ccc(N3CCN(c4ccc(OCC5CO[C@@](Cn6cncn6)(c6ccc(F)cc6F)C5)c(Cl)c4)CC3)cc2)cc1 (stereo in doubt) [Example 10]	0.00996
Cc1cc(N2CCN(c3ccc(C(=O)Nc4ccc(F)c(F)c4)cc3)CC2)ccc1OC[C@@H]1CO[C@@](Cn2cncn2)(c2ccc(F)cc2F)C1 [Example 27]	0.0127
N#Cc1ccc(NC(=O)c2ccc(N3CCN(c4ccc(OC[C@@H]5CO[C@@](Cn6cncn6)(c6ccc(F)cc6F)C5)c(CO)c4)CC3)cc2)nc1 [Example 38]	0.0319
Cc1cc(N2CCN(c3ccc(C(=O)Nc4ccc(F)cc4)cc3)CC2)cc(C)c1OC[C@@H]1CO[C@@](Cn2cncn2)(c2ccc(F)cc2F)C1 [Example 15]	0.0184
Cc1cc(N2CCN(c3ccc(C(=O)Nc4ccc(OC(F)F)c(F)c4)cc3)CC2)ccc1OC[C@@H]1CO[C@@](Cn2cncn2)(c2ccc(F)cc2F)C1 [Example 25]	0.0251
Cc1cc(N2CCN(c3ccc(C(=O)Nc4cc(C#N)ccn4)cc3)CC2)ccc1OC[C@@H]1CO[C@@](Cn2cncn2)(c2ccc(F)cc2F)C1 [Example 37]	0.0246
Cc1cc(N2CCN(c3ccc(C(=O)Nc4ccc(F)cc4)cc3C)CC2)ccc1OC[C@@H]1CO[C@@](Cn2cncn2)(c2ccc(F)cc2F)C1 [Example 32]	0.0481
Cc1cc(N2CCN(c3ccc(C(=O)Nc4ccc(OC(F)F)cc4)cc3)CC2)ccc1OC[C@@H]1CO[C@@](Cn2cncn2)(c2ccc(F)cc2F)C1 [Example 12]	0.0228
N#Cc1cc(N2CCN(c3ccc(C(=O)Nc4ccc(F)cc4)cc3)CC2)ccc1OC[C@@H]1CO[C@@](Cn2cncn2)(c2ccc(F)cc2F)C1 [Example 4]	0.0413
Cc1cc(N2CCN(c3ccc(C(=O)Nc4cc(F)cc(F)c4)cc3)CC2)ccc1OC[C@@H]1CO[C@@](Cn2cncn2)(c2ccc(F)cc2F)C1 [Example 28]	0.0266
Cc1cc(N2CCN(c3ccc(C(=O)Nc4ccc(Cl)cc4F)cc3)CC2)ccc1OC[C@@H]1CO[C@@](Cn2cncn2)(c2ccc(F)cc2F)C1 [Example 29]	0.037
Cc1cc(N2CCN(c3ccc(C(=O)Nc4ccc(F)cc4)c(C)c3)CC2)ccc1OC[C@@H]1CO[C@@](Cn2cncn2)(c2ccc(F)cc2F)C1 [Example 33]	0.0489
COc1cc(N2CCN(c3ccc(OC[C@@H]4CO[C@@](Cn5cncn5)(c5ccc(F)cc5F)C4)c(C)c3)CC2)ccc1C(=O)Nc1ccc(F)cc1 [Example 35]	0.109

###

# Tested on: Aspergillus fumigatus NCPF7099
# protocol notes: Broth microdilution assay (modified EUCAST)
# Format: cell-based
# experimental setup: Aspergillus fumigatus, NCPF7099, n = 3, read-out: MIC75 against Aspergillus fumigatus isolate NCPF7099
Catalogue of compounds with associated MIC
test readout: MIC (µM)

> print(dat)
                                   compound  unit  data.value
1  O=C(Nc1ccc(F)cc1)c1ccc(N2CCN(c3ccc(OCC4CO[C@@](Cn5cncn5)(c5ccc(F)cc5F)C4)c(F)c3)CC2)cc1 (stereo in doubt) [Example 17]    µM      0.0185
2  Cc1cc(N2CCN(c3ccc(C(=O)Nc4cccc(C#N)n4)cc3)CC2)ccc1OC[C@@H]1CO[C@@](Cn2cncn2)(c2ccc(F)cc2F)C1 [Example 36]    µM      0.0445
3  Cc1cc(N2CCN(c3ccc(C(=O)Nc4cccc(F)c4)cc3)CC2)ccc1OC[C@@H]1CO[C@@](Cn2cncn2)(c2ccc(F)cc2F)C1 [Example 14]    µM      0.0332
